molecular target: A2.1 HLA molecules (Homo sapiens, UniProt P04439, D140Y/D185E/D98H/E176V/E277Q/G131W/G231S/I119V/I121R/I166T/I218V/L300P/L318F/N151K/N90K/P208A/P217A/Q86G/Q94H/R138H/R169H/T345S); assay type: binding; set-up: scale not given here
readout-label: A2 Bind.
No unit in the answer, please; the number alone is enough.

Determine from records and report A2 Bind. for `GLWIRTPPV`
0.3600

Determine from records and report A2 Bind. for `ILGLLGFAV`
0.0600

Determine from records and report A2 Bind. for `LLWWITILL`
0.4900

Determine from records and report A2 Bind. for `ALFLGFLGA`
0.0945

Determine from records and report A2 Bind. for `YLLDLQEPV`
0.2200

Determine from records and report A2 Bind. for `RALAETSYV`
0.0100

Determine from records and report A2 Bind. for `LLPFVQWFV`
0.6500

Determine from records and report A2 Bind. for `LLLCRLPFL`
0.4200

Determine from records and report A2 Bind. for `KVLEYVIKV`
0.0900

Determine from records and report A2 Bind. for `RLLRGLIRL`
0.0370

Determine from records and report A2 Bind. for `TIIVHLNESV`
0.0350

Determine from records and report A2 Bind. for `NISGYNFSL`
0.0280

Determine from records and report A2 Bind. for `YLCCGITLL`
0.0210

Determine from records and report A2 Bind. for `IIGAETFYV`
0.0260

Determine from records and report A2 Bind. for `RLLTSLFFL`
0.3400

Determine from records and report A2 Bind. for `YVIKVSARV`
0.0140

Determine from records and report A2 Bind. for `KMVELVHFL`
0.1600

Determine from records and report A2 Bind. for `LMPFVQWFV`
0.8300

Determine from records and report A2 Bind. for `MVTTTNPLI`
0.0150

Determine from records and report A2 Bind. for `LIISCSCPTV`
0.0290

Determine from records and report A2 Bind. for `LMFSTSAYL`
0.3600

----------
target: DRB1*1201 (Homo sapiens, UniProt P01903+P01911, A100R/A169T/D57E/D86V/F55L/H45Y/K41T/L162R/M171V/P40S/Q125H/Q178H/Q39Y/Q99D/R42G/S66L/T262R/V114A/V67L/W38E/Y59H/Y61H/Y89S); experiment: biochemical
Provide the recorded pIC50 for the entries that follow.
# pIC50 = -log10(concentration in molar units)

Determine from records and report pIC50 for CC[C@H](C)[C@H](NC(=O)[C@H](CO)NC(=O)[C@@H](NC(=O)CN)C(C)C)C(=O)N[C@@H](Cc1c[nH]c2ccccc12)C(=O)N[C@@H](CC(N)=O)C(=O)N1CCC[C@H]1C(=O)N[C@H](C(=O)N[C@@H](CC(C)C)C(=O)N[C@@H](CC(C)C)C(=O)N[C@@H](Cc1c[nH]c2ccccc12)C(=O)N[C@@H](CCC(N)=O)C(=O)N1CCC[C@H]1C(=O)N[C@H](C(=O)N1CCC[C@H]1C(=O)O)[C@@H](C)CC)[C@@H](C)CC [Peptide 68.0034]
5.41

Determine from records and report pIC50 for CC[C@H](C)[C@H](NC(=O)[C@H](Cc1c[nH]c2ccccc12)NC(=O)[C@@H](NC(=O)[C@@H](N)C(C)C)[C@@H](C)O)C(=O)NCC(=O)N[C@@H](C)C(=O)N[C@@H](C)C(=O)N1CCC[C@H]1C(=O)N[C@@H](CC(C)C)C(=O)N[C@H](C(=O)N[C@@H](CC(C)C)C(=O)N[C@@H](CO)C(=O)N[C@@H](CCCNC(=N)N)C(=O)N[C@H](C(=O)N[C@H](C(=O)O)C(C)C)[C@@H](C)CC)[C@@H](C)CC [Peptide 68.0060]
6.09

Determine from records and report pIC50 for CSCC[C@H](NC(=O)[C@H](CCC(N)=O)NC(=O)[C@H](CC(C)C)NC(=O)CNC(=O)[C@H](CO)NC(=O)[C@@H](NC(=O)[C@@H](NC(=O)[C@@H](NC(=O)[C@@H](N)CC(=O)O)[C@@H](C)O)[C@@H](C)O)C(C)C)C(=O)N[C@@H](C)C(=O)N[C@@H](CC(C)C)C(=O)N[C@@H](CC(=O)O)C(=O)N[C@H](C(=O)N[C@@H](Cc1ccc(O)cc1)C(=O)N[C@@H](CC(N)=O)C(=O)O)C(C)C [Peptide 68.0051]
6.15
